Values compiled from paper PMC10519361.

# test.system: VirF (Shigella flexneri, UniProt P0A2T1)
# Sequence (P0A2T1 whole entry): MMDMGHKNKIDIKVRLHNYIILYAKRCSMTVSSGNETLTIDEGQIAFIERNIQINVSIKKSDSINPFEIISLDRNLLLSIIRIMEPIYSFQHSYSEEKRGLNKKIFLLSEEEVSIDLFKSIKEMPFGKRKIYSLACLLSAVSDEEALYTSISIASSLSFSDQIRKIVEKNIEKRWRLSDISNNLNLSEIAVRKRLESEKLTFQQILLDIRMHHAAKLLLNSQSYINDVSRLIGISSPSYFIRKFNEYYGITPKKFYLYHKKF
reported.endpoint: pKd
The read-out pKd is expressed as -log10 of concentration in moles per litre.

Take a look at these entries with their results.
| structure | pKd |
| --- | --- |
| CCCCCCCCCCCCC/C=C\C(=O)O | 5.09 |
| CCCCCC/C=C\CCCCCCCC(=O)O | 4.89 |
| CCCCCCCCCCCCCCCCC/C=C\C(=O)O | 4.95 |
| CCCCCCCCCCCCC/C=C/C(=O)O | 5.02 |

Query :: Input CCCCCCCC/C=C\CCCCCCCC(=O)O , output reported pKd.
Result :: 4.84
